# assay.name: LD50 in mice, observation time of 14 days
# run.conditions: mouse, in vivo, iv, observation time of 14 days
recorded.endpoint: LD50 at 336 h

What the record says about COc1ccc(CCN(C)CCCn2nc(C)c3cc(OC)c(OC)cc3c2=O)cc1OC.Cl [A] : LD50 at 336 h is 63 mg/kg

These measurements were taken from patent US4134980A.
